// provenance: PubChem BioAssay (Tox21)

# assayed.target: Peroxisome proliferator-activated receptor gamma (Homo sapiens)
# test: qHTS assay to identify small molecule antagonists of the peroxisome proliferator-activated receptor gamma (PPARg) signaling pathway (AID 743191); also: nearly all actives have a fitted effect of over 30% in size
# run.parameters: HEK293H PPARg-UAS-bla, beta-lactamase ratio, antagonist, 17 h; series mostly up to 62.6 µM
Results filed as inconclusive are left out. Activity calls are given as the source filed them. Calls follow the shape of the full dose curve.
Outcome codes: active, inactive

molecule: CCCCC(CC)CN (stereo unspecified)
assayed.target: Peroxisome proliferator-activated receptor gamma (Homo sapiens)
group: inactive

molecule: Cc1cc2c(OCC(CNC(C)(C)C)OC(=O)c3ccccc3)cccc2[nH]1 (stereo unspecified)
assayed.target: Peroxisome proliferator-activated receptor gamma (Homo sapiens)
group: inactive

molecule: CC[C@]1(O)C[C@H]2CN(CCc3c([nH]c4ccccc34)[C@@](C(=O)OC)(c3cc4c(cc3OC)N(C=O)[C@H]3[C@@](O)(C(=O)OC)[C@H](OC(C)=O)[C@]5(CC)C=CCN6CC[C@]43[C@@H]65)C2)C1
assayed.target: Peroxisome proliferator-activated receptor gamma (Homo sapiens)
group: inactive

molecule: C=C(C)C(=O)OCCCCCCCCCCCCC
assayed.target: Peroxisome proliferator-activated receptor gamma (Homo sapiens)
group: inactive

molecule: CC(=O)OCCN(CCOC(C)=O)c1ccc(N=Nc2ccc([N+](=O)[O-])cc2C#N)cc1
assayed.target: Peroxisome proliferator-activated receptor gamma (Homo sapiens)
group: inactive

molecule: CN1CCCC(CC2c3ccccc3Sc3ccccc32)C1 (stereo unspecified)
assayed.target: Peroxisome proliferator-activated receptor gamma (Homo sapiens)
group: active

molecule: CC(C)COCC(CN(Cc1ccccc1)c1ccccc1)N1CCCC1 (stereo unspecified)
assayed.target: Peroxisome proliferator-activated receptor gamma (Homo sapiens)
group: inactive

molecule: CC1(C)S[C@@H]2[C@H](NC(=O)C(c3ccccc3)S(=O)(=O)O)C(=O)N2[C@H]1C(=O)O (stereo partly specified)
assayed.target: Peroxisome proliferator-activated receptor gamma (Homo sapiens)
group: inactive

molecule: COc1cc(C(=O)NCCCCCC(=O)O)cc(OC)c1OC
assayed.target: Peroxisome proliferator-activated receptor gamma (Homo sapiens)
group: inactive

molecule: CC(CCC(=O)O)C(=O)O (stereo unspecified)
assayed.target: Peroxisome proliferator-activated receptor gamma (Homo sapiens)
group: inactive

molecule: Cc1ccccc1N=C(N)Nc1ccccc1C
assayed.target: Peroxisome proliferator-activated receptor gamma (Homo sapiens)
group: inactive

molecule: c1ccc2c(c1)CCc1ccccc1N2
assayed.target: Peroxisome proliferator-activated receptor gamma (Homo sapiens)
group: inactive

molecule: O=C(O)CCc1nc(-c2ccccc2)c(-c2ccccc2)o1
assayed.target: Peroxisome proliferator-activated receptor gamma (Homo sapiens)
group: inactive

molecule: CCCCCCCCN
assayed.target: Peroxisome proliferator-activated receptor gamma (Homo sapiens)
group: inactive

molecule: CN1C(C(=O)Nc2ccccn2)=C(O)c2sccc2S1(=O)=O
assayed.target: Peroxisome proliferator-activated receptor gamma (Homo sapiens)
group: inactive

molecule: Cc1ccco1
assayed.target: Peroxisome proliferator-activated receptor gamma (Homo sapiens)
group: inactive

molecule: CC(=O)c1ccc([N+](=O)[O-])cc1
assayed.target: Peroxisome proliferator-activated receptor gamma (Homo sapiens)
group: inactive

molecule: Nc1cccc2c1CN(C1CCC(=O)NC1=O)C2=O (stereo unspecified)
assayed.target: Peroxisome proliferator-activated receptor gamma (Homo sapiens)
group: inactive

molecule: NCCNCCO
assayed.target: Peroxisome proliferator-activated receptor gamma (Homo sapiens)
group: inactive

molecule: O=C(/C=C/c1ccc(O)c(O)c1)O[C@@H]1C[C@@](OC(=O)/C=C/c2ccc(O)c(O)c2)(C(=O)O)C[C@@H](O)[C@@H]1O
assayed.target: Peroxisome proliferator-activated receptor gamma (Homo sapiens)
group: inactive

molecule: C(=C\c1ccccc1)/c1ccccc1
assayed.target: Peroxisome proliferator-activated receptor gamma (Homo sapiens)
group: inactive
